Recorded below: pIC50, system MAPK14 (human).
Interpret pIC50 as the negative base-10 log of the concentration measured in mol/L.

Examples with answers:
Fc1ccc(-c2ncn(CCCNCc3ccccc3)c2-c2ccncc2)cc1 | 6.23
Brc1ccc(-c2nc3n(c2-c2ccncc2)CCC3)cc1 | 6.15
Cc1cc(-c2[nH]c(-c3ccc([S+](C)[O-])cc3)nc2-c2ccc(F)cc2)ccn1 (stereo not given) | 6.37

Moving on to the next molecule.
Which measured pIC50 belongs to C[S+]([O-])c1ccc(-n2cnc(-c3ccc(F)cc3)c2-c2ccncc2)cc1 (stereo not given) , tested on MAPK14 (human)?
5.64

* * *

- assayed.system: UniProt:Q16539
- protocol.text: Enzyme Assay
endpoint: pIC50
Interpret pIC50 as the negative base-10 log of the concentration measured in mol/L.

Cc1cc(-c2c(-c3ccc(F)cc3)ncn2CCCN2CCOCC2)ccn1 | 5.52
O=C1CN(c2ccc(-c3nc(-c4ccc(F)cc4)c(-c4ccncc4)[nH]3)cc2)NO1 | 7.52
Brc1ccc(-c2nc3n(c2-c2ccncc2)CCC3)cc1 | 5.49
Fc1ccc(-c2nc3n(c2-c2ccncc2)CCC3)cc1 | 7.18

# lookup: pIC50 of Clc1ccccc1-c1nc2n(c1-c1ccncc1)CCC2
6.60

# lookup: pIC50 of Clc1ccc(-c2nc3n(c2-c2ccncc2)CCC3)cc1
7.30

# lookup: pIC50 of CCSc1ccc(-c2nc3n(c2-c2ccncc2)CCC3)cc1
5.25

# lookup: pIC50 of Fc1ccc(-c2ncn(C3CCN(Cc4ccccc4)CC3)c2-c2ccncc2)cc1
6.36

# lookup: pIC50 of CSc1ccc(-c2nc3n(c2-c2ccncc2)CCC3)cc1
5.47

# lookup: pIC50 of Clc1cccc(-c2nc3n(c2-c2ccncc2)CCC3)c1
7.40

# lookup: pIC50 of COc1ccc(-c2nc3n(c2-c2ccncc2)CCC3)cc1
5.44

# lookup: pIC50 of C[S+]([O-])c1ccc(-c2nc(-c3cccs3)c(-c3ccncc3)[nH]2)cc1 (stereo not drawn)
6.34

# lookup: pIC50 of CC(=O)OCCn1cnc(-c2ccc(F)cc2)c1-c1ccncc1
7.30

* * *

Below, each of the compounds is paired with its reported IC50 value.
- assayed.system: MAPK14 (UniProt Q16539)
- Sequence (Q16539 whole entry, looked up): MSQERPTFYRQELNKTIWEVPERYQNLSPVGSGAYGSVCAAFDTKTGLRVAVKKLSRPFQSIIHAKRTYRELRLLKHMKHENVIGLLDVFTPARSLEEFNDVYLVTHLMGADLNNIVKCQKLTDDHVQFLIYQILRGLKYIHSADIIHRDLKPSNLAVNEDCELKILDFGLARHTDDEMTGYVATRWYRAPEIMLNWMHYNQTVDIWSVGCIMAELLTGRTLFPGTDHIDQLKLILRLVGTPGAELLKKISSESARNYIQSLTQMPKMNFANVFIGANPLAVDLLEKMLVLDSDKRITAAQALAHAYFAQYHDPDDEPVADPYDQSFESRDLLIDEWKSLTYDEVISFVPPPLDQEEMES
- protocol.text: Enzyme Assay

Examples with answers:
O=[N+]([O-])c1ccc(-c2nc(-c3ccc(F)cc3)c(-c3ccccc3)[nH]2)cc1 | > 2500 nM
CC(C)(C)C1=CC(O)(C(C)(C)C)CC(c2nc(-c3ccc(F)cc3)c(-c3ccncc3)[nH]2)=C1 (stereo not drawn) | > 2500 nM

Which measured IC50 belongs to CCc1nc[nH]c1-c1ccncc1 , tested on MAPK14 (UniProt Q16539)?
> 2500 nM

* * *

- assayed.system: UniProt:Q16539
- protocol.text: Enzyme Assay
Below, each of the compounds is paired with its reported IC50 value.

Examples with answers:
Fc1ccc(-c2ncn(CCCN3CCOCC3)c2-c2cccnc2)cc1 | > 10 µM
CS(=O)(=O)c1ccc(-c2nc3n(c2-c2ccncc2)CCC3)cc1 | > 10 µM
CCc1nc[nH]c1-c1ccncc1 | > 30 µM

# lookup: IC50 of Fc1ccc(-c2c(-c3ccncc3)nc3n2CCC3)cc1
> 10 µM

# lookup: IC50 of Clc1nc2n(c1-c1ccncc1)CCC2
> 50 µM

# lookup: IC50 of CC(=O)OCCc1nc(-c2ccncc2)c(-c2ccc(F)cc2)[nH]1
> 10 µM

# lookup: IC50 of Fc1ccc(-c2ncn(CCCN3CCOCC3)c2-c2ccccn2)cc1
> 10 µM

# lookup: IC50 of C[S+]([O-])c1ccc(-c2nc3n(c2-c2ccncc2)CCC3)cc1 (stereo not given)
> 10 µM

# lookup: IC50 of CC(C)(C)C1=CC(O)(C(C)(C)C)CC(c2nc(-c3ccc(F)cc3)c(-c3ccncc3)[nH]2)=C1 (stereo not given)
> 30 µM

# lookup: IC50 of O=[N+]([O-])c1ccc(-c2nc(-c3ccc(F)cc3)c(-c3ccccc3)[nH]2)cc1
> 10 µM

Each recorded value in this set is attributed to the Kinase Knowledgebase extract (Sharma et al. 2016).
